System: MS2 coat protein
Assay: apparent KD of MS2 coat protein; designed switch direction (-1 OFF switch, 1 ON switch): 1; higher = weaker reporter binding
Details: input ligand: microRNA oligo, concentration not stated
Experimental Endpoint: apparent KD of MS2 coat protein (nM)
Write the answer as a number in nM, unit excluded.

Using the record for UGUUGUAUUACAGGAUAUCUAUUAGUUAUAUUUAGAGAAGGGUAUUCACAUGAGGAUCACCCAUGUAUAUACGAGGAAGUUGUG [JMF's solution 91] (Eterna round: R96, puzzle: Same State NG 1) , report its apparent KD of MS2 coat protein.
42.3

Entry GUAGCAUACCGAGGAUAUUCAUAUAAUAAAUACAUGAGGAUCACCCAUGUUAGGCGAAAGCCUUGGGAGAAGGCGGAAUGCUAC [Xeonanis - 20 Mod58] (Eterna round: R96, puzzle: Same State NG 2) please
35.8

Entry GUAGCAUACCGAGGAUAUUCAUAUAAUAUACAUGAGGAUCACCCAUGUUAUAGGCGAAAGCCUUGGGAGAAGGCGGAAUGCUAC [Xeonanis - 20 Mod62] (Eterna round: R96, puzzle: Same State NG 2) please
15.3

Others:
Using the record for GCAGGACGAUAAUAUAACUUCACAUGAGGAUCACCCAUGUCUCAGGAUAUGGAUCCUAAUUGGAUCCAGAAGGGAGCGUCCUGC [Fiskers NG3ss - 34] (Eterna round: R96, puzzle: Same State NG 3) , report its apparent KD of MS2 coat protein.
25.9

Entry UGCCGGAUACCGACUACAUGAGGAUCACCCAUGUUAUCUCGUUAGGAUAUACUAACAACAGAUUAGUAGAAGGGACGCGGGCUU [Eternabot solution 23] (Eterna round: R96, puzzle: Same State NG 3) please
24.6

Entry AUUGUUUAUGCAGGAUAUGAUUAACAUGAGGAUCACCCAUGUGGUGUUGUGAGUAAGGAGAGUGAUCAGAAGGGCAUUUUUUUU [JMF's solution 69] (Eterna round: R96, puzzle: Same State NG 2) please
273

Entry GUGGUCAGACAUGAGGAUCACCCAUGUGGAAUAAAUAAGGACUAGGAUAUUUAAUAUAGGAUAUAAAAGAAGGAGUGGUUGGUG (Eterna round: R96, puzzle: Same State NG 3) please
44.1

Entry CUUUCUCUUGCAGGAUAUCCUAGUCUUCGGUUAGGAGAAGGGCAAGGAAAUUUGCUAAGCAAGUCUGUAACAGAGAUCCUCCUC [pwkr ssNG1 F9.1] (Eterna round: R96, puzzle: Same State NG 1) please
313

Entry UGUUGUAUUACAGGAUAUCUAUUGUUUUUGUUUAGAGAAGGGUAUUCACAUGAGGAUCACCCAUGUAUAUACGAGGAAGUUGUG [JMF's solution 80] (Eterna round: R96, puzzle: Same State NG 1) please
45

Source of measurements: the supplement of paper PMC9170038
